Values were extracted from PubChem BioAssay.

Experiment: E. coli growth modulation, two-sided OD650, primary screen, E. coli filamentation project, strain DRC41, 24 h (AID 1093);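 also: MC1000 strain lacking acrAB efflux and sulA so SOS filamentation is blocked; test concentration not given here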
Settings: OD650, 24 h, higher = more signal, called active from +8 up or from −8 down
Response key: T means z-score >= 0.1; F means z-score < 0.1.

Known results for compounds:
COCCOC(=O)N1C(=O)[C@@]2(c3cc(C#CCCO)ccc31)[C@H](c1ccccc1OCCO)N1[C@H](c3ccccc3)[C@H](c3ccccc3)OC(=O)[C@H]1[C@@H]2C(=O)N1CCCCCCC1 = T
COC(=O)[C@@]1(Cc2ccccc2CN=[N+]=[N-])N=C(c2ccc(OCCCO)cc2)O[C@H]1c1ccccc1CN=[N+]=[N-] = T

Q: API: above_or_equal(metric=z-score, cutoff=0.1) for item C=CCC(OC(C)=O)[C@@H]1[C@@H](N(Cc2ccc(-c3ccccc3)cc2)C(=O)c2ccc(C)cc2)c2cc(OCCCO)ccc2N1C(=O)Cc1ccc2ccccc2c1 (some centres undefined)
Result: T

Q: And CC=CC(O)C1C=CC2C(=O)NC(=O)C2N1Nc1ccccn1 (centres undefined) ?
Result: F

Q: Also, `Cc1ccc(N2C(=O)c3ccccc3[C@](C)(C(=O)NCc3ccccc3)[C@@H]2c2ccc(CO)cc2)nc1` please.
Result: T

Q: Same again, this time with `O=C(N1CCOCC1)[C@@]1(CCS(=O)(=O)c2ccccc2)N=C(c2ccc(OCCCO)cc2)O[C@H]1c1ccccc1`
Result: T
